This section presents compounds with their documented cytotoxicity at 10 µM values.
# runDescription: Toxicity liver stage against HepG2, at 10uM
# Assay type: cell-based
# Design: test concentration 10 uM, cell line HepG2-A16-CD81EGFP
# setupConditions: human, HepG2-A16-CD81EGFP cells; read-out: INHIBITION
Write down the numeric answer in % and omit the unit.

| compound | cytotoxicity at 10 µM (%) |
| --- | --- |
| CCS(=O)(=O)N1CCc2ncnc(OC)c2CC1 | 6.93 |
| CC(Cc1ccco1)NC(=O)C1=NN(c2ccccc2)C(=O)CC1 (centres undefined) | 0.537 |
| O=C(c1cc(-c2ccco2)nc2c(Cl)cccc12)N1CCS(=O)(=O)CC1 | -1.99 |
| COc1ccc(CC(=O)N2CCC[C@@H](N)[C@@H]2c2ccccc2F)cc1 | 2.49 |
| COCC(=O)N1CCC2(CC1)CNc1ccc(F)cc12 | 12.2 |
| COc1ccccc1C(=O)N1CC2(COC(C)(C)OC2)C1 | -6.4 |

stdin: Determine its reported cytotoxicity at 10 µM: CC(C1CCN(Cc2cnn(C)c2C2CC2)CC1)N(C)C (centres undefined)
stdout: 7.88

stdin: For the compound O=C(NCC1CC1)C1CN(C(=O)c2cccs2)CC12CCOCC2 (centres undefined) , give its measured cytotoxicity at 10 µM value.
stdout: -14

stdin: Annotate the compound OC1(CN2CCCC2)CCCN(Cc2cnc(-c3ccco3)nc2)C1 (centres undefined) with its measured cytotoxicity at 10 µM.
stdout: -6.84

stdin: // fetch cytotoxicity at 10 µM given entry CC(C)C1CCCN1C(=O)c1ccc(-n2ncc(C#N)c2N)cc1 (centres undefined)
stdout: -1.89
